# Tested on: PC-3 PIP/flu tumor-bearing mice
# ASSAY REMARKS: Biodistribution study in PC-3 PIP/flu tumor-bearing mice
# Type: in vivo, athymic nude Balb/c mice
# MEASUREMENT CONDITIONS: 24 h p.i., PC-3 PIP/flu tumor-bearing mice
Field: label. Allowed values: True (Spleen < 0.5 % IA/g) or False (Spleen >= 0.5 % IA/g).

# input Criterion: Spleen strictly below 0.5 % IA/g. Is it met by CC(C)Cc1ccc(C(C)C(=O)NC(CC(=O)O)C(=O)NCCCCC(NC(=O)CN2CCN(CC(=O)O)CCN(CC(=O)O)CCN(CC(=O)O)CC2)C(=O)NCC2CCC(C(=O)NC(Cc3ccc4ccccc4c3)C(=O)NCCCCC(NC(=O)NC(CCC(=O)O)C(=O)O)C(=O)O)CC2)cc1 (stereo not drawn) [^177Lu-Ibu-Dα-PSMA, metal not drawn] ?
# output True

# input Ok, now CC(C)Cc1ccc(C(C)C(=O)NCC[C@H](NC(=O)CN2CCN(CC(=O)O)CCN(CC(=O)O)CCN(CC(=O)O)CC2)C(=O)NCC2CCC(C(=O)N[C@@H](Cc3ccc4ccccc4c3)C(=O)NCCCC[C@H](NC(=O)N[C@@H](CCC(=O)O)C(=O)O)C(=O)O)CC2)cc1 (stereo partly drawn) [^177Lu-Ibu-sPSMA, metal not drawn]
# output False

# input Ok, now CC(C)Cc1ccc(C(C)C(=O)NCCCCC(NC(=O)CN2CCN(CC(=O)O)CCN(CC(=O)O)CCN(CC(=O)O)CC2)C(=O)NCC2CCC(C(=O)NC(Cc3ccc4ccccc4c3)C(=O)NCCCCC(NC(=O)NC(CCC(=O)O)C(=O)O)C(=O)O)CC2)cc1 (stereo not drawn) [^177Lu-Ibu-PSMA, metal not drawn]
# output False

# input Ok, now CC(C)Cc1ccc(C(C)C(=O)NC(CC(=O)NCCCCC(NC(=O)CN2CCN(CC(=O)O)CCN(CC(=O)O)CCN(CC(=O)O)CC2)C(=O)NCC2CCC(C(=O)NC(Cc3ccc4ccccc4c3)C(=O)NCCCCC(NC(=O)NC(CCC(=O)O)C(=O)O)C(=O)O)CC2)C(=O)O)cc1 (stereo not drawn) [^177Lu-Ibu-Dβ-PSMA, metal not drawn]
# output False

# input Ok, now CC(C)Cc1ccc(C(C)C(=O)NC(CC(N)=O)C(=O)NCCCCC(NC(=O)CN2CCN(CC(=O)O)CCN(CC(=O)O)CCN(CC(=O)O)CC2)C(=O)NCC2CCC(C(=O)NC(Cc3ccc4ccccc4c3)C(=O)NCCCCC(NC(=O)NC(CCC(=O)O)C(=O)O)C(=O)O)CC2)cc1 (stereo not drawn) [^177Lu-Ibu-N-PSMA, metal not drawn]
# output True

# input Ok, now CC(C)Cc1ccc(C(C)C(=O)NC(CCN)C(=O)NCCCCC(NC(=O)CN2CCN(CC(=O)O)CCN(CC(=O)O)CCN(CC(=O)O)CC2)C(=O)NCC2CCC(C(=O)NC(Cc3ccc4ccccc4c3)C(=O)NCCCCC(NC(=O)NC(CCC(=O)O)C(=O)O)C(=O)O)CC2)cc1 (stereo not drawn) [^177Lu-Ibu-DAB-PSMA, metal not drawn]
# output True

====

# Test system: PC-3 PIP/flu tumor-bearing mice
# ASSAY REMARKS: Biodistribution study in PC-3 PIP/flu tumor-bearing mice
# Assay type: in vivo, athymic nude Balb/c mice
# MEASUREMENT CONDITIONS: 24 h p.i., PC-3 PIP/flu tumor-bearing mice
VALUE KIND: Lung (% IA/g)
Record the value in % IA/g, omitting the unit from your answer.

Use the examples below as a reference point.
# input Look up Lung for this molecule: CC(C)Cc1ccc(C(C)C(=O)NCCCCC(NC(=O)CN2CCN(CC(=O)O)CCN(CC(=O)O)CCN(CC(=O)O)CC2)C(=O)NCC2CCC(C(=O)NC(Cc3ccc4ccccc4c3)C(=O)NCCCCC(NC(=O)NC(CCC(=O)O)C(=O)O)C(=O)O)CC2)cc1 (stereo not drawn) [^177Lu-Ibu-PSMA, metal not drawn]
# output 0.62

# input Ok, now CC(C)Cc1ccc(C(C)C(=O)NC(CC(=O)O)C(=O)NCCCCC(NC(=O)CN2CCN(CC(=O)O)CCN(CC(=O)O)CCN(CC(=O)O)CC2)C(=O)NCC2CCC(C(=O)NC(Cc3ccc4ccccc4c3)C(=O)NCCCCC(NC(=O)NC(CCC(=O)O)C(=O)O)C(=O)O)CC2)cc1 (stereo not drawn) [^177Lu-Ibu-Dα-PSMA, metal not drawn]
# output 0.39

***
# input Look up Lung for this molecule: CC(C)Cc1ccc(C(C)C(=O)NC(CC(N)=O)C(=O)NCCCCC(NC(=O)CN2CCN(CC(=O)O)CCN(CC(=O)O)CCN(CC(=O)O)CC2)C(=O)NCC2CCC(C(=O)NC(Cc3ccc4ccccc4c3)C(=O)NCCCCC(NC(=O)NC(CCC(=O)O)C(=O)O)C(=O)O)CC2)cc1 (stereo not drawn) [^177Lu-Ibu-N-PSMA, metal not drawn]
# output 0.24

====

# System: PC-3 PIP/flu tumor-bearing mice
# ASSAY REMARKS: Biodistribution study in PC-3 PIP/flu tumor-bearing mice
# Assay type: in vivo, athymic nude Balb/c mice
# MEASUREMENT CONDITIONS: 4 h p.i., PC-3 PIP/flu tumor-bearing mice
# Procedure: In vivo experiments were approved by the local veterinarian department and conducted in accordance with the Swiss law of animal protection. Mice were obtained from Charles River Laboratories, Sulzfeld, Germany, at the age of 5-6 weeks. […] Biodistribution studies were performed 12-15 days after PC-3 PIP/flu tumor cell inoculation. […] Selected tissues and organs were collected, weighed and measured using a γ-counter. […]
Field: label. Allowed values: yes (Salivary glands < 0.9 % IA/g) or no (Salivary glands >= 0.9 % IA/g).

Example results:
# input Criterion: Salivary glands strictly below 0.9 % IA/g. Is it met by CC(C)Cc1ccc(C(C)C(=O)NC(CCN)C(=O)NCCCCC(NC(=O)CN2CCN(CC(=O)O)CCN(CC(=O)O)CCN(CC(=O)O)CC2)C(=O)NCC2CCC(C(=O)NC(Cc3ccc4ccccc4c3)C(=O)NCCCCC(NC(=O)NC(CCC(=O)O)C(=O)O)C(=O)O)CC2)cc1 (stereo not drawn) [^177Lu-Ibu-DAB-PSMA, metal not drawn] ?
# output yes

# input Ok, now CC(C)Cc1ccc(C(C)C(=O)NCC[C@H](NC(=O)CN2CCN(CC(=O)O)CCN(CC(=O)O)CCN(CC(=O)O)CC2)C(=O)NCC2CCC(C(=O)N[C@@H](Cc3ccc4ccccc4c3)C(=O)NCCCC[C@H](NC(=O)N[C@@H](CCC(=O)O)C(=O)O)C(=O)O)CC2)cc1 (stereo partly drawn) [^177Lu-Ibu-sPSMA, metal not drawn]
# output no

# input Ok, now CC(C)Cc1ccc(C(C)C(=O)NC(CC(=O)O)C(=O)NCCCCC(NC(=O)CN2CCN(CC(=O)O)CCN(CC(=O)O)CCN(CC(=O)O)CC2)C(=O)NCC2CCC(C(=O)NC(Cc3ccc4ccccc4c3)C(=O)NCCCCC(NC(=O)NC(CCC(=O)O)C(=O)O)C(=O)O)CC2)cc1 (stereo not drawn) [^177Lu-Ibu-Dα-PSMA, metal not drawn]
# output yes

# input Ok, now CC(C)Cc1ccc(C(C)C(=O)NCCCCC(NC(=O)CN2CCN(CC(=O)O)CCN(CC(=O)O)CCN(CC(=O)O)CC2)C(=O)NCC2CCC(C(=O)NC(Cc3ccc4ccccc4c3)C(=O)NCCCCC(NC(=O)NC(CCC(=O)O)C(=O)O)C(=O)O)CC2)cc1 (stereo not drawn) [^177Lu-Ibu-PSMA, metal not drawn]
# output no

# input Ok, now CC(C)Cc1ccc(C(C)C(=O)NC(CC(=O)NCCCCC(NC(=O)CN2CCN(CC(=O)O)CCN(CC(=O)O)CCN(CC(=O)O)CC2)C(=O)NCC2CCC(C(=O)NC(Cc3ccc4ccccc4c3)C(=O)NCCCCC(NC(=O)NC(CCC(=O)O)C(=O)O)C(=O)O)CC2)C(=O)O)cc1 (stereo not drawn) [^177Lu-Ibu-Dβ-PSMA, metal not drawn]
# output no

Please look at the following compound next.
# input Criterion: Salivary glands strictly below 0.9 % IA/g. Is it met by CC(C)Cc1ccc(C(C)C(=O)NC(CC(N)=O)C(=O)NCCCCC(NC(=O)CN2CCN(CC(=O)O)CCN(CC(=O)O)CCN(CC(=O)O)CC2)C(=O)NCC2CCC(C(=O)NC(Cc3ccc4ccccc4c3)C(=O)NCCCCC(NC(=O)NC(CCC(=O)O)C(=O)O)C(=O)O)CC2)cc1 (stereo not drawn) [^177Lu-Ibu-N-PSMA, metal not drawn] ?
# output no

====

# System: PC-3 PIP/flu tumor-bearing mice
# ASSAY REMARKS: Biodistribution study in PC-3 PIP/flu tumor-bearing mice
# Type: in vivo, athymic nude Balb/c mice
# MEASUREMENT CONDITIONS: 4 h p.i., PC-3 PIP/flu tumor-bearing mice
VALUE KIND: Stomach (% IA/g)
Record the value in % IA/g, omitting the unit from your answer.

# input Look up Stomach for this compound: CC(C)Cc1ccc(C(C)C(=O)NCCCCC(NC(=O)CN2CCN(CC(=O)O)CCN(CC(=O)O)CCN(CC(=O)O)CC2)C(=O)NCC2CCC(C(=O)NC(Cc3ccc4ccccc4c3)C(=O)NCCCCC(NC(=O)NC(CCC(=O)O)C(=O)O)C(=O)O)CC2)cc1 (stereo not drawn) [^177Lu-Ibu-PSMA, metal not drawn]
# output 0.79

# input Ok, now CC(C)Cc1ccc(C(C)C(=O)NC(CCN)C(=O)NCCCCC(NC(=O)CN2CCN(CC(=O)O)CCN(CC(=O)O)CCN(CC(=O)O)CC2)C(=O)NCC2CCC(C(=O)NC(Cc3ccc4ccccc4c3)C(=O)NCCCCC(NC(=O)NC(CCC(=O)O)C(=O)O)C(=O)O)CC2)cc1 (stereo not drawn) [^177Lu-Ibu-DAB-PSMA, metal not drawn]
# output 0.62

# input Ok, now CC(C)Cc1ccc(C(C)C(=O)NC(CC(=O)O)C(=O)NCCCCC(NC(=O)CN2CCN(CC(=O)O)CCN(CC(=O)O)CCN(CC(=O)O)CC2)C(=O)NCC2CCC(C(=O)NC(Cc3ccc4ccccc4c3)C(=O)NCCCCC(NC(=O)NC(CCC(=O)O)C(=O)O)C(=O)O)CC2)cc1 (stereo not drawn) [^177Lu-Ibu-Dα-PSMA, metal not drawn]
# output 0.25
